test system: SK-MEL-5 melanoma; experiment: NCI-60 one-dose screen, 48 h; conditions: 10 µM unless noted
This is part of a sample that, as a whole, favours compounds with a hit. Of some 83,000 tested, about 20% had one in any assay. Activity calls are given as the source filed them. The calls were made as follows: active = growth percent below 10; inactive = the rest.
Give one outcome, nothing more. List: y (active), n (inactive)

molecule=COc1cc(N=Nc2cc(Cc3ccc(N(C)C)cc3)c(N)cc2N(C)C)c2ncccc2c1 label=y
molecule=COC(=O)/C=C1\S/C(=N\NS(=O)(=O)c2ccc(C)cc2)N(c2ccccc2)C1=O label=n
molecule=CN(Cc1cnc2nc(N)nc(N)c2n1)c1ccc(C(=O)N[C@@H](CCc2nn[nH]n2)c2nn[nH]n2)cc1 label=n
molecule="COc1cc(C2CC(c3cc(OC)c(OCCCOc4ccc(-n5c(/C=C/c6ccccc6)nc6ccccc6c5=O)cc4)c(OC)c3)=NO2)cc(OC)c1OC (centres undefined)" label=n
molecule=COc1ccc2c(c1)C(=O)/C(=C/c1cccc(OCC(=O)Nc3nc(C)c(C)s3)c1)O2 label=n

**Query** For this molecule, state the assay outcome: CCOC(=O)c1ccc(N2NC(=O)/C(=C/c3ccc([N+](=O)[O-])o3)C2=O)cc1
**Result** n

**Query** Here is the next molecule: c1coc(-c2c3ccc(=[N+]4CCCCC4)cc-3oc3cc(N4CCCCC4)ccc23)c1
**Result** y

**Query** Here is the next molecule: CCOc1ccccc1-n1c(CN2CCN(C(=O)COc3ccc(CNCCCCCCN4C5CCCC4CC(OC(=O)Nc4cc(C)ccc4OC)C5)cc3)CC2)nc2ccccc2c1=O (centres undefined)
**Result** y

**Query** Try this molecule too: C(=N\Nc1ncc(-c2cc3cc4c(cc3o2)OCO4)s1)/c1ccco1
**Result** n

**Query** Do the same for COc1ccc(OC)c(-c2c(C#N)c(-c3ccc(Cl)cc3)nc3c2c(-c2ccccc2)nn3-c2ccccc2)c1 please
**Result** n

**Query** For CCCCCS(=O)(=O)Nc1ccc(C(=O)O)cc1 then?
**Result** n

**Query** One more molecule: Cn1cc2c(c1)-c1nc(Nc3ccccc3)ncc1CC2
**Result** n
